- EXPERIMENTAL_SYSTEM: MKNK1 (human) (UniProt Q9BUB5)
- Sequence (Q9BUB5 whole entry, looked up): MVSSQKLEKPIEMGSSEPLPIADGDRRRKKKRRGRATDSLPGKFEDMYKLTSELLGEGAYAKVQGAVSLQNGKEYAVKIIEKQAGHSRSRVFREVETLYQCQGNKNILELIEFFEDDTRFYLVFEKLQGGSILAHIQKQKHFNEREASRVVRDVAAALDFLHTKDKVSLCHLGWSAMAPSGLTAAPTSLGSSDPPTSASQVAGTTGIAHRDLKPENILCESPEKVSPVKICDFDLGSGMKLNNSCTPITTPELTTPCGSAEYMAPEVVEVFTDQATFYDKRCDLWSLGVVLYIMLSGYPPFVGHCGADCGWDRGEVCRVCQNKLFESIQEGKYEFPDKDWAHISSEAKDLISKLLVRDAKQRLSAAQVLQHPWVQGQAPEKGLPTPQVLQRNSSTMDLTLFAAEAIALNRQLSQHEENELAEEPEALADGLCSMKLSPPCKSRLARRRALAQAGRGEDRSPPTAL
- EXPERIMENT_NOTES: KINOMEscan competition binding
- TEST_PARAMETERS: compound 10.0 µM
Reported kinase still bound, per cent of control values follow for various compounds

CHEMICAL_STRING: COc1cc2ncn(-c3cc(OCc4ccccc4C(F)(F)F)c(C(N)=O)s3)c2cc1OC
EXPERIMENTAL_SYSTEM: MKNK1 (human) (UniProt Q9BUB5)
UNIT: %
kinase still bound, per cent of control: 88
//
CHEMICAL_STRING: COc1cc2ncnc(-n3nc(-c4ccccn4)nc3N)c2cc1OC
EXPERIMENTAL_SYSTEM: MKNK1 (human) (UniProt Q9BUB5)
UNIT: %
kinase still bound, per cent of control: 51
//
CHEMICAL_STRING: Cc1n[nH]c2ccc(-c3cncc(OC[C@@H](N)Cc4c[nH]c5ccccc45)c3)cc12
EXPERIMENTAL_SYSTEM: MKNK1 (human) (UniProt Q9BUB5)
UNIT: %
kinase still bound, per cent of control: 19
//
CHEMICAL_STRING: COc1cc(C(=O)N2CCC(N3CCN(C)CC3)CC2)ccc1Nc1ncc2c(n1)N(C)c1ccccc1C(=O)N2C
EXPERIMENTAL_SYSTEM: MKNK1 (human) (UniProt Q9BUB5)
UNIT: %
kinase still bound, per cent of control: 50
